Molecular target: T1, in-line fusion protein of human IL-36R extracellular domain and IL1RAcP extracellular domain expressed with … (human; mouse, UniProt Q9HB29 20-337; Q9NPH3 21-359, limits assumed)
T1 construct: not shown: mouse IgG2a Fc
T1 sequence (looked up): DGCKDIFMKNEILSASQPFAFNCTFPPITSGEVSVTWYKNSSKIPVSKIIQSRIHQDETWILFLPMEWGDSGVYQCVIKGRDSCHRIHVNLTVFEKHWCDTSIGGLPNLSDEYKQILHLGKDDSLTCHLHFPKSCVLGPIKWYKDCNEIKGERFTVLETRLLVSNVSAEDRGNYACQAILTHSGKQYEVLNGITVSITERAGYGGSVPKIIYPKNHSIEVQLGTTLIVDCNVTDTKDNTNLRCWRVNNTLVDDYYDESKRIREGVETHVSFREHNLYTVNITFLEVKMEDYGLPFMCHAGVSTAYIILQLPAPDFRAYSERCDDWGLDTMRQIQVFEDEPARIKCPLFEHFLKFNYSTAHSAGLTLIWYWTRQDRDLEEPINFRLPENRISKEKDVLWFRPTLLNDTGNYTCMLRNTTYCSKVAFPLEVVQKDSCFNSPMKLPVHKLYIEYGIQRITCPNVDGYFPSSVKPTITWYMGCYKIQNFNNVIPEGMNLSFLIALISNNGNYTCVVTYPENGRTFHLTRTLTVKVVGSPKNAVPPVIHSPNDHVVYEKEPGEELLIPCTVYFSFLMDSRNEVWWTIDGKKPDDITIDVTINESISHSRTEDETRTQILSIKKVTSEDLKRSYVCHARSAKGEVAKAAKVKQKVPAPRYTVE
Experiment: SPR Biacore 4000, mAb captured on anti-hFc, 37C
Procedure: Equilibrium dissociation constants (KD values) for IL-36R binding to purified anti-IL-36R antibodies were determined using a real-time surface plasmon resonance biosensor using a Biacore 4000 instrument. […] Kinetic association rate constant (kₐ) and dissociation rate constant (kd) were determined by fitting the real-time sensorgrams to a 1:1 binding model using Scrubber 2.0c curve fitting software. […]
Assay readout: Kd (nM)
Respond numerically; units are nM and should not be typed.

{"Binder": "H4H14709P (antibody, human IgG4 S228P, kappa, V domains shown, Fully human anti-IL-36R antibody) VH: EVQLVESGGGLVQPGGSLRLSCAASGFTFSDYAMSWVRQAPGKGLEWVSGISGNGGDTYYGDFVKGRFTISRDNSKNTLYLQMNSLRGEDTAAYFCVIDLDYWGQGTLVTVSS VL: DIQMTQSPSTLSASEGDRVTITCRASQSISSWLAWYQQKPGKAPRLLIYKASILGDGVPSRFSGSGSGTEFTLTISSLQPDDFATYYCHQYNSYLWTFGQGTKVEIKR", "Value observed": 0.264}

Specify reported Kd for the binder shown: H4H14708P2 (antibody, human IgG4 S228P, kappa, V domains shown, Fully human anti-IL-36R antibody) VH: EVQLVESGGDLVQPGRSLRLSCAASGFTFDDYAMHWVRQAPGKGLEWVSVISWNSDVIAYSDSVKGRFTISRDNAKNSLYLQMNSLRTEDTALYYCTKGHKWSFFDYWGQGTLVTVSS VL: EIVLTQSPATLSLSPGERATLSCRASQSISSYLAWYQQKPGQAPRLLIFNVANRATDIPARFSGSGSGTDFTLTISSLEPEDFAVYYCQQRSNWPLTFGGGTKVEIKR
0.656

Specify reported Kd for the binder shown: H4H14731P (antibody, human IgG4 S228P, kappa, V domains shown, Fully human anti-IL-36R antibody) VH: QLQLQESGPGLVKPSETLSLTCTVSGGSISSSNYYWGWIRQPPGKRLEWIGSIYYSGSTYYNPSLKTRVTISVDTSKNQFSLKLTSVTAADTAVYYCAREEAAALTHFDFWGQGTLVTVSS VL: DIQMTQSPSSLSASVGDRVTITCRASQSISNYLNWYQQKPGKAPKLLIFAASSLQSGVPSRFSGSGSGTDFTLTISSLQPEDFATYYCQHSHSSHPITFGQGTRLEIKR
9.77

Specify reported Kd for the binder shown: H4H14757P (antibody, human IgG4 S228P, kappa, V domains shown, Fully human anti-IL-36R antibody) VH: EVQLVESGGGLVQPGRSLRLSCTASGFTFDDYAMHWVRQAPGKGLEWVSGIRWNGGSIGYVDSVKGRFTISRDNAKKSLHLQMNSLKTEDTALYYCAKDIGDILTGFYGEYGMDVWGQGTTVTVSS VL: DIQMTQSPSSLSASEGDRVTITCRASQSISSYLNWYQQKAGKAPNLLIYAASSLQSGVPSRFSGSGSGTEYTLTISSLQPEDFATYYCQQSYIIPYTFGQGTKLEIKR
0.374
